Reported LD50 at 2 h values for the following compounds.
assayRemarks: Acute toxicity in ip dosed Wistar rat measured 2 hrs post dose
Format: organism-based
appliedConditions: in vivo
Answer with a number only, understood to be in mg/kg.

O=C1CN=C(c2ccccc2)c2cc([N+](=O)[O-])ccc2N1: 733
CCOC1=NCC(=O)N(c2ccccc2)c2ccc(Cl)cc21: 650
CCOC1=NCC(=O)N(C)c2ccc(Cl)cc21: 300
CN1C(=O)CN=C(Oc2ccccc2F)c2cc(Cl)ccc21: 650

Request: Return reported LD50 at 2 h; argument: CC(OC1=NCC(=O)N(C)c2ccc(Cl)cc21)C(F)(F)F (stereo unspecified)
Result: 300

====

assayRemarks: Acute toxicity in ip dosed Wistar rat measured 2 hrs post dose
Assay type: organism-based
appliedConditions: in vivo
Reported LD50 at 2 h values for the following compounds.
Answer with a number only, understood to be in mg/kg.

C#CCOC1=NCC(=O)N(C)c2ccc(Cl)cc21: 138
CCOC1=NCC(=O)N(CC)c2ccc(Cl)cc21: 600
CCOC1=NCC(=O)N(C)c2ccc(C)cc21: 300

Request: Return reported LD50 at 2 h; argument: `CCOC1=NCC(=O)N(C)c2ccc([N+](=O)[O-])cc21`
Result: 600

Request: Return reported LD50 at 2 h; argument: `CCOC1=NCC(=O)N(C)c2cc(Cl)ccc21`
Result: 600

====

Tested on: Mus musculus
assayRemarks: Anticonvulsant activity in ip dosed mouse assessed as inhibition of N-sulfamoylhexahydroazepine-induced seizure
Type: functional
Reported log10 of ED50 values for the following compounds.
Remember, log10 of ED50, in mg/kg.

Use these answered entries as a reference point.
CCCOC1=NCC(=O)N(C)c2ccc(Cl)cc21: 1.58
C=CCOC1=NCC(=O)N(C)c2ccc(Cl)cc21: 1.81
CC(OC1=NCC(=O)N(C)c2ccc(Cl)cc21)C(F)(F)F (configuration not stated): 2.00
CN1C(=O)CN=C(Oc2ccccc2)c2cc(Cl)ccc21: 1.70
CCOC1=NCC(=O)N(C)c2ccc(Cl)cc21: 1.55

Request: Return reported log10 of ED50; argument: `O=C1CN=C(c2ccccc2)c2cc([N+](=O)[O-])ccc2N1`
Result: 0.00

Request: Return reported log10 of ED50; argument: `CCOC1=NCC(=O)N(C)c2ccc([N+](=O)[O-])cc21`
Result: 1.94

Request: Return reported log10 of ED50; argument: `CCOC1=NCC(=O)N(C)c2cc(Cl)ccc21`
Result: 1.48

====

Reported ED50 values for the following compounds.
Test system: Mus musculus
assayRemarks: Anticonvulsant activity in ip dosed mouse assessed as inhibition of N-sulfamoylhexahydroazepine-induced seizure
Assay type: functional

Use these answered entries as a reference point.
CCOC1=NCC(=O)N(CC)c2ccc(Cl)cc21: > 75 mg/kg
CN1C(=O)CNC(=O)c2cc([N+](=O)[O-])ccc21: > 102 mg/kg
CN1C(=O)CNC(=O)c2cc(Cl)cc([N+](=O)[O-])c21: > 102 mg/kg
CN1C(=O)CNC(=O)c2cc(Cl)ccc21: > 100 mg/kg
CCOC1=NCC(=O)N(C)c2c1cc(Cl)cc2[N+](=O)[O-]: > 102 mg/kg

Request: Return reported ED50; argument: `Cc1cc(Cl)ccc1OC1=NCC(=O)N(C)c2ccc(Cl)cc21`
Result: > 102 mg/kg

Request: Return reported ED50; argument: `C#CCOC1=NCC(=O)N(C)c2ccc(Cl)cc21`
Result: > 25 mg/kg

Request: Return reported ED50; argument: `CN1C(=O)CN=C(OCC(Cl)Cl)c2cc(Cl)ccc21`
Result: 128 mg/kg

Request: Return reported ED50; argument: `CN1C(=O)CN=C(OCC(F)(F)F)c2cc(Cl)ccc21`
Result: > 102 mg/kg

Request: Return reported ED50; argument: `CCOC1=NCC(=O)N(C)c2ccc(C)cc21`
Result: > 102 mg/kg

Request: Return reported ED50; argument: `CN1C(=O)CN=C(Oc2ccccc2F)c2cc(Cl)ccc21`
Result: > 200 mg/kg

Request: Return reported ED50; argument: `CN1C(=O)CNC(=O)c2ccc(Cl)cc21`
Result: > 102 mg/kg

Request: Return reported ED50; argument: CN1C(=O)CN=C(c2ccccc2)c2cc(Cl)ccc21 [DIAZEPAM]
Result: 1.1 mg/kg
